All values here come from patent US9815851B2.

# SYSTEM UNDER TEST: RORγ (UniProt P51449)
# Sequence (P51449 1-518): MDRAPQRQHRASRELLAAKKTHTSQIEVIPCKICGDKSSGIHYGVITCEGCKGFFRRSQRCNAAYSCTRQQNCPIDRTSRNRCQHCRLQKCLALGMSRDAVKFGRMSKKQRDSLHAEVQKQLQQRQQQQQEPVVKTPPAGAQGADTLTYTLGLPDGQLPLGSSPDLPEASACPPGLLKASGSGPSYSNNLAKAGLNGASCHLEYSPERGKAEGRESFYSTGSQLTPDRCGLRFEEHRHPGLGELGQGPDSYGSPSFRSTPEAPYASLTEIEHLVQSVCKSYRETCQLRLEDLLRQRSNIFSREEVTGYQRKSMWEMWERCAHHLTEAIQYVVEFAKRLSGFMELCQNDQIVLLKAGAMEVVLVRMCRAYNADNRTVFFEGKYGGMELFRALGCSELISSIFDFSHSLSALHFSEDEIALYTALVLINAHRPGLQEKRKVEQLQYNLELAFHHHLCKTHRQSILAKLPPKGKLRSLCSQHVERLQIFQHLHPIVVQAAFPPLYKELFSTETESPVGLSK
# ASSAY NAME: RORγ Gal4 Reporter Gene Assay in 293T cells (firefly and renilla luciferase)
# Format: cell-based, human
# MEASUREMENT CONTEXT: second value of the cell; Gal4 reporter gene assay in 293T cells, firefly luciferase
TEST READOUT: pIC50 (FF)

- COMPOUND: "Cc1c(C(=O)NC2COC2)cc(-c2cc(C(C)C)c3c(c2)C(C)(C)N(C(C)C)S3(=O)=O)n1CC1CCCCC1"
  pIC50 (FF): 6.9
- COMPOUND: "Cc1c(C(=O)NCCCO)cc(-c2cc(C(C)(C)C)cc(C(C)(C)C)c2)n1CC1CCCCC1"
  pIC50 (FF): 6.6
- COMPOUND: "Cc1c(C(=O)NCC(C)(C)C(N)=O)cc(-c2ccc(S(=O)(=O)NC(C)(C)C)c(C(C)(C)C)c2)n1CC1CCCCC1"
  pIC50 (FF): 7.4
- COMPOUND: "Cc1c(C(=O)NCC(C)(C)C(=O)O)cc(-c2ccc(S(=O)(=O)NC(C)(C)C)c(C(F)F)c2)n1CC1CCCCC1"
  pIC50 (FF): 7.1
- COMPOUND: "Cc1c(C(=O)NCC(C)(C)O)cc(-c2cn(S(=O)(=O)N3CCCCC3)c3ccccc23)n1CC1CCCCC1"
  pIC50 (FF): 7.4
- COMPOUND: "Cc1c(C(=O)NCC2(C(N)=O)CCOCC2)cc(-c2cc(C(C)(C)C)c3c(c2)C2(CCO3)CC2)n1CC1CCCCC1"
  pIC50 (FF): 8.1
- COMPOUND: "Cc1c(C(=O)NCCC(C)(C)C(=O)O)cc(-c2ccc(S(=O)(=O)NC(C)(C)C)c(C(F)(F)F)c2)n1CC1CCCCC1"
  pIC50 (FF): 7.4
- COMPOUND: "Cc1c(C(=O)NC2CCOCC2)cc(-c2ccc(S(=O)(=O)NC(C)(C)C)c(OC(F)F)c2)n1CC1CCCCC1"
  pIC50 (FF): 7.3
- COMPOUND: "Cc1c(C(=O)N[C@H]2CCCOC2)cc(-c2ccc(S(=O)(=O)NC(C)(C)C)c(C(F)(F)F)c2)n1CC1CCCCC1"
  pIC50 (FF): 7.2
- COMPOUND: "Cc1c(C(=O)N2CCC(C)(O)CC2)cc(-c2cc(C(C)(C)C)cc(C(C)(C)C)c2)n1CC1CCCCC1"
  pIC50 (FF): 6.8
- COMPOUND: "Cc1c(S(=O)(=O)NC(C)(C)C)ccc(-c2cc(C(=O)NCC(C)(C)C(N)=O)c(C)n2CC2CCCCC2)c1Cl"
  pIC50 (FF): 8.0
- COMPOUND: "CNC(=O)C(C)(C)CCNC(=O)c1cc(-c2ccc(S(=O)(=O)NC(C)(C)C)c(C(F)(F)F)c2)n(CC2CCCCC2)c1C"
  pIC50 (FF): 6.6
- COMPOUND: "Cc1c(C(=O)NCC(C)(C)C(=O)NS(C)(=O)=O)cc(-c2cc(C(C)(C)C)c3c(c2)C2(CCO3)CC2)n1CC1CCCCC1"
  pIC50 (FF): 7.3
- COMPOUND: "Cc1c(C(=O)NC2CCOCC2)cc(-c2ccc(S(=O)(=O)NC(C)(C)C)c(C(F)(F)F)c2F)n1CC1CCCCC1"
  pIC50 (FF): 7.5
- COMPOUND: "Cc1c(C(=O)NCC(C)(C)C(=O)NCCC(=O)O)cc(-c2cc(C(C)(C)C)c3c(c2)C2(CCO3)CC2)n1CC1CCCCC1"
  pIC50 (FF): 6.5
- COMPOUND: "Cc1c(C(=O)NCC(C)(C)CC(=O)O)cc(-c2cc(C(C)(C)C)c3c(c2)C2(CCO3)CC2)n1CC1CCCCC1"
  pIC50 (FF): 7.5
- COMPOUND: "Cc1c(S(=O)(=O)NC(C)(C)C)ccc(-c2cc(C(=O)NCC3(O)CCS(=O)(=O)CC3)c(C)n2CC2CCCCC2)c1Cl"
  pIC50 (FF): 7.6
- COMPOUND: "Cc1c(C(=O)NCCN2CCOCC2)cc(-c2ccc(S(=O)(=O)NC(C)(C)C)c(C(C)(C)C)c2)n1CC1CCCCC1"
  pIC50 (FF): 6.1
- COMPOUND: "CC(C)(C)NS(=O)(=O)c1ccc(-c2cc(C(=O)NCCC(C)(C)C(=O)O)c(C(N)=O)n2CC2CCCCC2)cc1C(F)(F)F"
  pIC50 (FF): 6.7
- COMPOUND: "Cc1c(C(=O)NCC(C)(C)CC(=O)O)cc(-c2ccc(S(=O)(=O)NC(C)(C)C)c(C(F)(F)F)c2)n1CC1CCCCC1"
  pIC50 (FF): 7.4
- COMPOUND: "Cc1c(C(=O)NCC2CC2)cc(-c2cc(C(C)(C)C)c3c(c2)C2(CCO3)CC2)n1CC1CCCCC1"
  pIC50 (FF): 6.4
- COMPOUND: "Cc1c(C(=O)NC2CC23CCOCC3)cc(-c2ccc(S(=O)(=O)NC(C)(C)C)c(C(C)(C)C)c2)n1CC1CCCCC1 (stereo not drawn)"
  pIC50 (FF): 7.9
- COMPOUND: "Cc1c(C(=O)NCC(=O)O)cc(-c2cc(C(C)(C)C)cc(C(C)(C)C)c2)n1CC1CCCCC1"
  pIC50 (FF): 5.8
- COMPOUND: "Cc1c(C(=O)NC2CCOCC2)cc(-c2cc(C(=O)NC(C)(C)C)cc3ccccc23)n1CC1CCCCC1"
  pIC50 (FF): 6.8
